B1: library; numbered along this chain (parent)
chain: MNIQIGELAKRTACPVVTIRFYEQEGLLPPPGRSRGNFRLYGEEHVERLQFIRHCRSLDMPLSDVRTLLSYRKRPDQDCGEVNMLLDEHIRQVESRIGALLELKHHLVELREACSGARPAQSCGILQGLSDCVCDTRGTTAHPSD

- Variants of: B1
- EXPERIMENT_NOTES: sfGFP reporter fluorescence (15 h) (µM FITC); higher = higher leak
- DETAILS: library round: Round 0; ligand: none

[
  {
    "MUTATION_STRING": "V82R",
    "sfGFP reporter fluorescence": 0.0605
  },
  {
    "MUTATION_STRING": "V82M",
    "sfGFP reporter fluorescence": 0.0594
  },
  {
    "MUTATION_STRING": "C79Y",
    "sfGFP reporter fluorescence": 0.0597
  },
  {
    "MUTATION_STRING": "Y41N",
    "sfGFP reporter fluorescence": 0.0594
  },
  {
    "MUTATION_STRING": "S130A",
    "sfGFP reporter fluorescence": 0.0599
  },
  {
    "MUTATION_STRING": "I3G",
    "sfGFP reporter fluorescence": 0.061
  },
  {
    "MUTATION_STRING": "E109L",
    "sfGFP reporter fluorescence": 0.0586
  },
  {
    "MUTATION_STRING": "G98A",
    "sfGFP reporter fluorescence": 0.0614
  },
  {
    "MUTATION_STRING": "N83F",
    "sfGFP reporter fluorescence": 0.0588
  },
  {
    "MUTATION_STRING": "F21Y",
    "sfGFP reporter fluorescence": 0.061
  },
  {
    "MUTATION_STRING": "R39D",
    "sfGFP reporter fluorescence": 0.0603
  },
  {
    "MUTATION_STRING": "H89K",
    "sfGFP reporter fluorescence": 0.0601
  },
  {
    "MUTATION_STRING": "L85H",
    "sfGFP reporter fluorescence": 0.0603
  },
  {
    "MUTATION_STRING": "L110E",
    "sfGFP reporter fluorescence": 0.059
  },
  {
    "MUTATION_STRING": "F21A",
    "sfGFP reporter fluorescence": 0.059
  },
  {
    "MUTATION_STRING": "K104C",
    "sfGFP reporter fluorescence": 0.0614
  },
  {
    "MUTATION_STRING": "V16W",
    "sfGFP reporter fluorescence": 0.0599
  },
  {
    "MUTATION_STRING": "D131I",
    "sfGFP reporter fluorescence": 0.0607
  },
  {
    "MUTATION_STRING": "V108T",
    "sfGFP reporter fluorescence": 0.0588
  },
  {
    "MUTATION_STRING": "G6W",
    "sfGFP reporter fluorescence": 0.061
  },
  {
    "MUTATION_STRING": "R39K",
    "sfGFP reporter fluorescence": 0.0612
  },
  {
    "MUTATION_STRING": "G36Y",
    "sfGFP reporter fluorescence": 0.0605
  },
  {
    "MUTATION_STRING": "L129D",
    "sfGFP reporter fluorescence": 0.0588
  },
  {
    "MUTATION_STRING": "E7C",
    "sfGFP reporter fluorescence": 0.0612
  },
  {
    "MUTATION_STRING": "E109Q",
    "sfGFP reporter fluorescence": 0.0601
  },
  {
    "MUTATION_STRING": "E109N",
    "sfGFP reporter fluorescence": 0.0597
  },
  {
    "MUTATION_STRING": "L27W",
    "sfGFP reporter fluorescence": 0.0616
  },
  {
    "MUTATION_STRING": "C55E",
    "sfGFP reporter fluorescence": 0.061
  },
  {
    "MUTATION_STRING": "F21K",
    "sfGFP reporter fluorescence": 0.0607
  },
  {
    "MUTATION_STRING": "V108C",
    "sfGFP reporter fluorescence": 0.0594
  },
  {
    "MUTATION_STRING": "H142A",
    "sfGFP reporter fluorescence": 0.0614
  },
  {
    "MUTATION_STRING": "K104D",
    "sfGFP reporter fluorescence": 0.0592
  },
  {
    "MUTATION_STRING": "T136A",
    "sfGFP reporter fluorescence": 0.0601
  },
  {
    "MUTATION_STRING": "C55P",
    "sfGFP reporter fluorescence": 0.0596
  },
  {
    "MUTATION_STRING": "N83W",
    "sfGFP reporter fluorescence": 0.059
  },
  {
    "MUTATION_STRING": "L28P",
    "sfGFP reporter fluorescence": 0.061
  },
  {
    "MUTATION_STRING": "C79Q",
    "sfGFP reporter fluorescence": 0.059
  },
  {
    "MUTATION_STRING": "E112Y",
    "sfGFP reporter fluorescence": 0.0592
  },
  {
    "MUTATION_STRING": "V108Y",
    "sfGFP reporter fluorescence": 0.0608
  },
  {
    "MUTATION_STRING": "I3C",
    "sfGFP reporter fluorescence": 0.0586
  }
]
